Test system: HCC3153
PROTOCOL: cells
Assay type: cell-based
PROTOCOL CONDITIONS: Homo sapiens, 72 h; HCC3153, three-day drug treatment; read-out: gIC50

{"COMPOUND": "COc1ncc(-c2ccc3nccc(-c4ccnnc4)c3c2)cc1NS(=O)(=O)c1ccc(F)cc1F [Compound B]", "IC50, nM": 38.9}

###

Test system: panel of 51 human breast cell lines
PROTOCOL: Breast Cell Line Panel B proliferation assay, panel summary
Assay type: cell-based
PROTOCOL CONDITIONS: 51 human breast cell lines, read-out: gIC50s across the panel (range)
pIC50: −log10 of the molar value.
EXPERIMENTAL READOUT: pIC50

{"MOLECULAR STRING": "COc1ncc(-c2ccc3nccc(-c4ccnnc4)c3c2)cc1NS(=O)(=O)c1ccc(F)cc1F", "ASSAYED SYSTEM": "panel of 51 human breast cell lines", "REPORTED": "6.40 to 8.96"}

###

Test system: MDAMB361
PROTOCOL: cells
Format: cell-based
PROTOCOL CONDITIONS: Homo sapiens, MDA-MB-361, 72 h; MDAMB361, three-day drug treatment; read-out: gIC50

{"MOLECULAR STRING": "COc1ncc(-c2ccc3nccc(-c4ccnnc4)c3c2)cc1NS(=O)(=O)c1ccc(F)cc1F", "IC50": "1.7 nM"}

###

Tested on: HCC202
PROTOCOL: cells
Type: cell-based
PROTOCOL CONDITIONS: Homo sapiens, 72 h; HCC202, three-day drug treatment; read-out: gIC50
pIC50: −log10 of the molar value.

{"MOLECULAR STRING": "COc1ncc(-c2ccc3nccc(-c4ccnnc4)c3c2)cc1NS(=O)(=O)c1ccc(F)cc1F", "ASSAYED SYSTEM": "HCC202", "pIC50": 8.96}

###

Tested on: UACC893D
PROTOCOL: cells
Format: cell-based
PROTOCOL CONDITIONS: Homo sapiens, 72 h, three-day drug treatment, read-out: gIC50
pIC50: −log10 of the molar value.
EXPERIMENTAL READOUT: pIC50

{"MOLECULAR STRING": "COc1ncc(-c2ccc3nccc(-c4ccnnc4)c3c2)cc1NS(=O)(=O)c1ccc(F)cc1F", "REPORTED": 8.06}

###

System: MDAMB157
PROTOCOL: cells
Assay type: cell-based
PROTOCOL CONDITIONS: Homo sapiens, MDA-MB-157, 72 h; MDAMB157, three-day drug treatment; read-out: gIC50
EXPERIMENTAL READOUT: IC50

{"MOLECULAR STRING": "COc1ncc(-c2ccc3nccc(-c4ccnnc4)c3c2)cc1NS(=O)(=O)c1ccc(F)cc1F", "EXPERIMENTAL READOUT": "IC50", "REPORTED": "398 nM"}

###

Tested on: KPL-1
PROTOCOL: Panel A proliferation assay (CellTiter-Glo); HER2 2 copies, KRAS WT, PIK3CA p.E545K
Type: cell-based, human
PROTOCOL CONDITIONS: Homo sapiens; KPL-1, mean of low and high density; read-out: Mean gIC50
pIC50: −log10 of the molar value.
EXPERIMENTAL READOUT: pIC50

{"MOLECULAR STRING": "COc1ncc(-c2ccc3nccc(-c4ccnnc4)c3c2)cc1NS(=O)(=O)c1ccc(F)cc1F", "REPORTED": 8.63}

###

Tested on: MCF7
PROTOCOL: Panel A proliferation assay (CellTiter-Glo); HER2 Loss 1 copy, KRAS WT, PIK3CA p.E545K
Assay type: cell-based, human
PROTOCOL CONDITIONS: Homo sapiens; MCF7, mean of low and high density; read-out: Mean gIC50
pIC50: −log10 of the molar value.

{"MOLECULAR STRING": "COc1ncc(-c2ccc3nccc(-c4ccnnc4)c3c2)cc1NS(=O)(=O)c1ccc(F)cc1F", "ASSAYED SYSTEM": "MCF7", "pIC50": 8.74}

###

System: 184A1
PROTOCOL: cells
Assay type: cell-based
PROTOCOL CONDITIONS: Homo sapiens, 72 h; 184A1, three-day drug treatment; read-out: gIC50
pIC50: −log10 of the molar value.

{"MOLECULAR STRING": "COc1ncc(-c2ccc3nccc(-c4ccnnc4)c3c2)cc1NS(=O)(=O)c1ccc(F)cc1F", "pIC50": 8.80}

###

System: MX-1
PROTOCOL: cells
Assay type: cell-based
PROTOCOL CONDITIONS: Homo sapiens, MX1, 72 h; MX-1, three-day drug treatment; read-out: gIC50
pIC50: −log10 of the molar value.

{"MOLECULAR STRING": "COc1ncc(-c2ccc3nccc(-c4ccnnc4)c3c2)cc1NS(=O)(=O)c1ccc(F)cc1F", "ASSAYED SYSTEM": "MX-1", "pIC50": 8.28}

###

System: MCF10F
PROTOCOL: cells
Format: cell-based
PROTOCOL CONDITIONS: Homo sapiens, MCF-10F, 72 h, three-day drug treatment, read-out: gIC50
EXPERIMENTAL READOUT: IC50 (nM)

{"MOLECULAR STRING": "COc1ncc(-c2ccc3nccc(-c4ccnnc4)c3c2)cc1NS(=O)(=O)c1ccc(F)cc1F", "ASSAYED SYSTEM": "MCF10F", "REPORTED": 2.4}

###

System: SUM229PE
PROTOCOL: cells
Assay type: cell-based
PROTOCOL CONDITIONS: Homo sapiens, 72 h, three-day drug treatment, read-out: gIC50

{"MOLECULAR STRING": "COc1ncc(-c2ccc3nccc(-c4ccnnc4)c3c2)cc1NS(=O)(=O)c1ccc(F)cc1F", "ASSAYED SYSTEM": "SUM229PE", "IC50": "2.5 nM"}

###

Tested on: UACC812
PROTOCOL: cells
Assay type: cell-based
PROTOCOL CONDITIONS: Homo sapiens, UACC-812, 72 h; UACC812, three-day drug treatment; read-out: gIC50

{"MOLECULAR STRING": "COc1ncc(-c2ccc3nccc(-c4ccnnc4)c3c2)cc1NS(=O)(=O)c1ccc(F)cc1F", "RESULT UNIT": "nM", "IC50": 4.9}

###

PROTOCOL: in vitro
Assay type: cell-based
PROTOCOL CONDITIONS: human, 184A1 breast epithelium cells (HER2−, PIK3CA NA); 184A1, 50% net loss of cells vs time 0; read-out: LC50

{"MOLECULAR STRING": "COc1ncc(-c2ccc3nccc(-c4ccnnc4)c3c2)cc1NS(=O)(=O)c1ccc(F)cc1F", "RESULT UNIT": "µM", "CC50 at 3 days": 26.7}

###

System: MDAMB468D
PROTOCOL: cells
Assay type: cell-based
PROTOCOL CONDITIONS: Homo sapiens, 72 h, three-day drug treatment, read-out: gIC50

{"MOLECULAR STRING": "COc1ncc(-c2ccc3nccc(-c4ccnnc4)c3c2)cc1NS(=O)(=O)c1ccc(F)cc1F", "IC50": "31.6 nM"}

###

System: T47DKBluc
PROTOCOL: cells
Format: cell-based
PROTOCOL CONDITIONS: Homo sapiens, 72 h, three-day drug treatment, read-out: gIC50
pIC50: −log10 of the molar value.

{"MOLECULAR STRING": "COc1ncc(-c2ccc3nccc(-c4ccnnc4)c3c2)cc1NS(=O)(=O)c1ccc(F)cc1F", "pIC50": 7.81}

###

System: BT-20
PROTOCOL: Panel A proliferation assay (CellTiter-Glo); HER2 2 copies, KRAS WT, PIK3CA p.P539R
Type: cell-based, human
PROTOCOL CONDITIONS: Homo sapiens; BT-20, high seeding density, 72 h; read-out: High Density gIC50
pIC50: −log10 of the molar value.

{"MOLECULE": "COc1ncc(-c2ccc3nccc(-c4ccnnc4)c3c2)cc1NS(=O)(=O)c1ccc(F)cc1F [Compound B]", "pIC50": 8.11}

###

PROTOCOL: in vitro
Assay type: cell-based
PROTOCOL CONDITIONS: human, MCF10A cells (breast epithelium; HER2−; PIK3CA NA), 50% net loss of cells vs time 0, read-out: LC50
EXPERIMENTAL READOUT: CC50 at 3 days

{"MOLECULAR STRING": "COc1ncc(-c2ccc3nccc(-c4ccnnc4)c3c2)cc1NS(=O)(=O)c1ccc(F)cc1F", "EXPERIMENTAL READOUT": "CC50 at 3 days", "REPORTED": "6.7 µM"}

###

System: MDA-MB-468
PROTOCOL: Panel A proliferation assay (CellTiter-Glo); HER2 2 copies, KRAS WT, PIK3CA WT
Type: cell-based, human
PROTOCOL CONDITIONS: Homo sapiens; MDA-MB-468, low seeding density, 72 h; read-out: Low Density gIC50
Method: A total of 15 breast cancer cell lines were used in this study. […] Cells of each line were seeded into a 384-well microtiter plate at two cell densities. Low density ranges were 300-1800 cells/well, and a high density was 600 to 3600 cells/well). The plating density was determined by the rate of proliferation of the cell line in the absence of any inhibitor and varied amongst cell lines. High plating densities were double that of low density. Each cell density was plated in triplicate. […]
pIC50: −log10 of the molar value.

{"MOLECULE": "COc1ncc(-c2ccc3nccc(-c4ccnnc4)c3c2)cc1NS(=O)(=O)c1ccc(F)cc1F [Compound B]", "pIC50": 7.43}

These data points were gathered from patent US20130317037A1.
